Test system: membrane-bound phospholipase A2 (Oryctolagus cuniculus)
Test: Tested in vitro for inhibition of phospholipase A2 (PLA2) in rabbit heart membranes.
Listed next: entries and their corresponding IC30.
The reply should be a number in nM, with the unit left off.

Look over these answered cases.
molecule: CN(C(=O)/C=C/c1ccc(S(C)(=O)=O)cc1)c1ccc(S(=O)(=O)NC2CCN(CCc3ccccc3)CC2)cc1
target system: membrane-bound phospholipase A2 (Oryctolagus cuniculus)
metric name: IC30
meas value: 9
--
molecule: CN(C(=O)/C=C/c1ccc(O)c(F)c1)c1ccc(S(=O)(=O)NC2CCCCCC2)cc1
target system: membrane-bound phospholipase A2 (Oryctolagus cuniculus)
metric name: IC30
meas value: 5330
--
molecule: CC(C)CN1CCC(NS(=O)(=O)c2ccc(N(C)C(=O)/C=C/c3ccc(S(C)(=O)=O)cc3)cc2)CC1
target system: membrane-bound phospholipase A2 (Oryctolagus cuniculus)
metric name: IC30
meas value: 51
--
molecule: CN(C(=O)/C=C/c1ccc(O)c(O)c1)c1ccc(S(=O)(=O)NC2Cc3ccccc3C2)cc1
target system: membrane-bound phospholipase A2 (Oryctolagus cuniculus)
metric name: IC30
meas value: 4640
--
molecule: Cc1cccc(CCNS(=O)(=O)c2ccc(N(C)C(=O)/C=C/c3ccc(S(C)(=O)=O)cc3)cc2)n1
target system: membrane-bound phospholipase A2 (Oryctolagus cuniculus)
metric name: IC30
meas value: 66
--
molecule: Cc1cccc(CCN(C)S(=O)(=O)c2ccc(N(C)C(=O)/C=C/c3ccc(S(C)(=O)=O)cc3)cc2)n1
target system: membrane-bound phospholipase A2 (Oryctolagus cuniculus)
metric name: IC30
meas value: 65
--
molecule: CN(C(=O)/C=C/c1ccc(O)c(O)c1)c1ccc(S(=O)(=O)NC2CCc3ccccc32)cc1 (stereo not drawn)
target system: membrane-bound phospholipase A2 (Oryctolagus cuniculus)
metric name: IC30
meas value: 6100

Field: next molecule
Input line: Recorded IC30 for CN(C(=O)/C=C/c1ccc(S(C)(=O)=O)cc1)c1ccc(S(=O)(=O)NCCc2ccccn2)cc1 , please?
Output line: 210

From: ChEMBL document CHEMBL1125593
